System: U2OS
Experimental Details: Multiplex assay against U2OS
Assay type: toxicity, cell-based
Condition Details: human, 12 h, 1 µM, compound concentration 1 uM, replicate 2
Provide the recorded Population Hoechst High Intensity Objects (%) for the entries that follow.
Give bare numbers, in %.

>>> df
                                   compound  unit_of_measure  assay_result
0  CCCCC1=NC2(CCCC2)C(=O)N1Cc1ccc(-c2ccccc2-c2nnn[nH]2)cc1                %             0
1  CC(C)c1noc(N2CCC(COc3ccc(-c4ccc(S(C)(=O)=O)cc4)nc3)CC2)n1                %             1

Next compound, please.
# query: Population Hoechst High Intensity Objects (%) of entry CCCCCC(O)/C=C/[C@H]1C(=O)CC(O)C1C/C=C\CCCC(=O)O (stereo partly drawn)
0

###

System: HEK-293T
Experimental Details: Multiplex assay against HEK293T
Assay type: toxicity, cell-based
Condition Details: human, 48 h, 10 µM, compound concentration 10 uM, replicate 1
Readout Name: Population Hoechst High Intensity Objects (%)
One number for each entry, in %.

// known answers, use as guide
                                   compound  assay_result
0  Cc1c(CC(=O)O)c2cccnc2n1Cc1ccc(S(C)(=O)=O)cc1C(F)(F)F [FEVIPIPRANT]             4
1  COc1cccc2c1c(NS(=O)(=O)c1ccc(Cl)s1)nn2Cc1cccc(CNC(=O)C(C)(C)O)c1             4

Next compound, please.
# query: Population Hoechst High Intensity Objects (%) of entry Br.CS(=O)(=O)Nc1c(O)ccc2c1CCCC2C1=NCCN1 (stereo not drawn)
4

###

Tested on: U2OS
Experimental Details: Multiplex assay against U2OS
Type: toxicity, cell-based
Condition Details: human, 48 h, 1 µM, compound concentration 1 uM, replicate 1
Provide the recorded Population Healthy Nuclei (%) for the entries that follow.
One number for each entry, in %.

// known answers, use as guide
Compound	Population Healthy Nuclei (%)
CC(=O)Nc1cccc2c1c(Sc1ccc(Cl)cc1)c(C)n2CC(=O)O	74
Cc1c(CC(=O)O)c2cccnc2n1Cc1ccc(S(C)(=O)=O)cc1C(F)(F)F	71
O=C(NCCN1CCC(n2c(=O)[nH]c3cc(Cl)ccc32)CC1)c1ccc(F)cc1 [HALOPEMIDE]	75

Field: Population Healthy Nuclei (%). Fill in for each record below.
1. CC(C)COc1ccc(CNC(=O)N(Cc2ccc(F)cc2)C2CCN(C)CC2)cc1
2. O=C1[C@H](Cc2ccc(O)cc2)N2C(=O)CCN(C(=O)NCc3ccccc3)[C@H]2CN1Cc1cccc2ccccc12

1. 68
2. 73

###

Provide the recorded Population Mitotic Cells (%) for the entries that follow.
Test system: Fibroblast
Experimental Details: Multiplex assay against human fibroblast
Assay type: toxicity, cell-based
Condition Details: 12 h, 1 µM, compound concentration 1 uM, replicate 1
Give bare numbers, in %.

// known answers, use as guide
>>> print(df.to_string())
                                   molecule  unit_of_measure  assay_result
0  Cc1noc(-c2ccc(-c3ccc(CC(=O)O)cc3)cc2)c1NC(=O)O[C@H](C)c1ccccc1Cl                %            77
1  CC(=O)Nc1cccc2c1c(Sc1ccc(Cl)cc1)c(C)n2CC(=O)O                %            72
2  COc1cccc2c1c(NS(=O)(=O)c1ccc(Cl)s1)nn2Cc1cccc(CNC(=O)C(C)(C)O)c1                %            56
3  O=C1[C@H](Cc2ccc(O)cc2)N2C(=O)CCN(C(=O)NCc3ccccc3)[C@H]2CN1Cc1cccc2ccccc12                %            67

Field: Population Mitotic Cells (%). Fill in for each record below.
1. CCc1cc2cc(NS(=O)(=O)c3ccc(C#N)cc3)ccc2n(CC)c1=O
2. Cl.NCCc1ccc(O)c(O)c1 [DOPAMINE HYDROCHLORIDE]

1: 57; 2: 57

Field: Population Mitotic Cells (%). Fill in for each record below.
1. CC(C)COc1ccc(CNC(=O)N(Cc2ccc(F)cc2)C2CCN(C)CC2)cc1
2. Cc1onc(-c2ccccc2Cl)c1C(=O)N(C)c1ccc(Cl)cc1

34
39

Field: Population Mitotic Cells (%). Fill in for each record below.
1. CCCCC(=O)N(Cc1ccc(-c2ccccc2-c2nnn[nH]2)cc1)[C@H](C(=O)O)C(C)C
2. N#Cc1cc(F)cc(-c2nc(-c3ccc(F)cn3)no2)c1

[54, 71]

###

Provide the recorded Total Cell Count for the entries that follow.
System: Fibroblast
Experimental Details: Multiplex assay against human fibroblast
Format: toxicity, cell-based
Condition Details: 48 h, 10 µM, compound concentration 10 uM, replicate 1
Numbers only.

>>> print(df.to_string())
                                   compound  measurement_target      readout_name  assay_result
0  Cl.NCCc1ccc(O)c(O)c1 [DOPAMINE HYDROCHLORIDE]          Fibroblast  Total Cell Count           141
1  CC(C)c1noc(N2CCC(COc3ccc(-c4ccc(S(C)(=O)=O)cc4)nc3)CC2)n1          Fibroblast  Total Cell Count           164

Field: Total Cell Count. Fill in for each record below.
1. N#Cc1cc(F)cc(-c2nc(-c3ccc(F)cn3)no2)c1
2. CN[C@@H](C)C(=O)N[C@H](C(=O)N1CCC[C@H]1C(=O)Nc1snnc1-c1ccccc1)C1CCCCC1
3. Cc1cnc(-c2cc(N3CCN(C(=O)CCS(C)(=O)=O)CC3)ncc2Cl)c(C)c1
4. CC(C)(C)c1cc(NC(=O)Nc2ccc(-c3cn4c(n3)sc3cc(OCCN5CCOCC5)ccc34)cc2)no1

162
145
141
195

Field: Total Cell Count. Fill in for each record below.
1. O=C1[C@H](Cc2ccc(O)cc2)N2C(=O)CCN(C(=O)NCc3ccccc3)[C@H]2CN1Cc1cccc2ccccc12
2. COc1ccccc1N1CCN(C[C@@H](C(=O)NC(C)(C)C)c2ccccc2)CC1.Cl.Cl
3. Cl.N=C(N)NC(=O)Cc1c(Cl)cccc1Cl [GUANFACINE HYDROCHLORIDE]

1. 124
2. 122
3. 142

Field: Total Cell Count. Fill in for each record below.
1. NCCc1cn(S(=O)(=O)c2c(Cl)nc3sccn23)c2ccccc12.O=C(O)C(=O)O
2. CN(C)C(=O)Cn1cc(-c2ccc(-c3cncc4ccccc34)cc2)cn1

189
117

###

Tested on: U2OS
Experimental Details: Multiplex assay against U2OS
Format: toxicity, cell-based
Condition Details: human, 48 h, 1 µM, compound concentration 1 uM, replicate 1
Provide the recorded Population Apoptotic (%) for the entries that follow.
Answers are plain numbers, in %.

// known answers, use as guide
>>> df
                                   compound  measurement_target  unit_of_measure  assay_result
0  Cc1onc(-c2ccccc2Cl)c1C(=O)N(C)c1ccc(Cl)cc1                U2OS                %            87
1  N#Cc1c(Oc2cccc(OS(=O)(=O)CCCC(F)(F)F)c2)cccc1C(F)(F)F                U2OS                %            87
2  COc1cccc2c1c(NS(=O)(=O)c1ccc(Cl)s1)nn2Cc1cccc(CNC(=O)C(C)(C)O)c1                U2OS                %            95
3       O=C(CCCc1ccccc1)Nc1nc2ccccc2c(=O)s1                U2OS                %            91
4    N#Cc1cc(F)cc(-c2nc(-c3ccc(F)cn3)no2)c1                U2OS                %            96

# query: Population Apoptotic (%) of entry Cl.N=C(N)NC(=O)Cc1c(Cl)cccc1Cl [GUANFACINE HYDROCHLORIDE]
89

###

Provide the recorded Population Mitotic Cells (%) for the entries that follow.
Tested on: HEK-293T
Experimental Details: Multiplex assay against HEK293T
Type: toxicity, cell-based
Condition Details: human, 12 h, 10 µM, compound concentration 10 uM, replicate 2
Give me the value, and tack the unit on after it.

In [3]: df
Out[3]:
                                   compound  measurement_target  assay_result
0  CCCCCC(O)/C=C/[C@H]1C(=O)CC(O)C1C/C=C\CCCC(=O)O (some centres undefined)            HEK-293T           46%
1  NCCc1cn(S(=O)(=O)c2c(Cl)nc3sccn23)c2ccccc12.O=C(O)C(=O)O            HEK-293T           35%
2  O=C1[C@H](Cc2ccc(O)cc2)N2C(=O)CCN(C(=O)NCc3ccccc3)[C@H]2CN1Cc1cccc2ccccc12            HEK-293T           40%

Next compound, please.
# query: Population Mitotic Cells (%) of entry "CCCCC(=O)N(Cc1ccc(-c2ccccc2-c2nnn[nH]2)cc1)[C@H](C(=O)O)C(C)C"
48%
